# Target Under Test: Fuc(a1-4)GlcNAc
# Test Summary: glycan array binding signal (z-score within array); higher = stronger binding
# Run Parameters: glycan notation: IUPAC condensed, linker removed
Shown is part of a subset that was picked to be rich in the strongest signals.
Quick reference: glycan array binding signal (z-score) of the listed items.
// response body must contain only the number

[
  {
    "Binder": "SP15308F-bth-333-19-333 (Bacteroides thetaiotaomicron) (protein) SCNNEWESEQYVQMVSFKAPVNAQGVTPIYIRYKPEGKVTYQLPLIVSGSTMNSKDLNVHVGLDLDTLDVLNVEHFGSRKELFFKPLENKYYEFPETVQIPAGECTSLLPIDFALKDLDQVDKWVLPLAIQSNDPSHNYQANPRKFYRRAMLRISPFNDYSGQYSATAYKVYFKGNEKEAIVPEYHTSYVIDDKTIFFYAGLIDIDRLDRKYYKIKFEFTEEKIDLQTRKLKISSDNEDINLVVKGQPSYTVEEEMDATRPYLKHIYVTINNLEYEFTDYTSVPGYPLEYVVKGSLTMERKINTQIPDEDQAIEW",
    "Assay Readout": "glycan array binding signal (z-score)",
    "Reported Result": 7.35
  }
]

Requested read-out: glycan array binding signal (z-score). Entry: Dectin2 (Homo sapiens), Q6EIG7 (protein) MMQEQQPQSTEKRGWLSLRLWSVAGISIALLSACFIVSCVVTYHFTYGETGKRLSELHSYHSSLTCFSEGTKVPAWGCCPASWKSFGSSCYFISSEEKVWSKSEQNCVEMGAHLVVFNTEAEQNFIVQQLNESFSYFLGLSDPQGNNNWQWIDKTPYEKNVRFWHLGEPNHSAEQCASIVFWKPTGWGWNDVICETRRNSICEMNKIYL -0.102

Which glycan array binding signal (z-score) value is on record for SP15308A-bot-339-19-339 (Bacteroides ovatus) (protein) ACNNEWEDEQYEQYISFKSPIPAGGEGVTDIYVRYKEDGKVTYRLPIVVSGSTTNTLDREVHIAVDKDTLETLNIERFSIHRPGLWYTALEEDKYDFPKTVHISAGSSVEQLNIDFNLQGIDMLEKWVLPLTIVDDPSYNYKSHPRKNYAKALLRVIPFNNYSGSYTSSAMKVYTYINGKPDTNARTANKRTGYVINDNTVFFYAGLISEDLDKEVREKYKINVHFNEDGTLHMEQGDPTNKMKFELIGTPTYSKTSVMDATRPYLERRYVQIMFEYDFEDFSYGGNGVDVIPIKYKVEGSMTLQRNINTQIPDEDQQIEW ? 19.1
